study system: αLβ2 (Homo sapiens, UniProt P05107+P20701)
Construct: endogenous in cells
Sequence (P20701 26-1170): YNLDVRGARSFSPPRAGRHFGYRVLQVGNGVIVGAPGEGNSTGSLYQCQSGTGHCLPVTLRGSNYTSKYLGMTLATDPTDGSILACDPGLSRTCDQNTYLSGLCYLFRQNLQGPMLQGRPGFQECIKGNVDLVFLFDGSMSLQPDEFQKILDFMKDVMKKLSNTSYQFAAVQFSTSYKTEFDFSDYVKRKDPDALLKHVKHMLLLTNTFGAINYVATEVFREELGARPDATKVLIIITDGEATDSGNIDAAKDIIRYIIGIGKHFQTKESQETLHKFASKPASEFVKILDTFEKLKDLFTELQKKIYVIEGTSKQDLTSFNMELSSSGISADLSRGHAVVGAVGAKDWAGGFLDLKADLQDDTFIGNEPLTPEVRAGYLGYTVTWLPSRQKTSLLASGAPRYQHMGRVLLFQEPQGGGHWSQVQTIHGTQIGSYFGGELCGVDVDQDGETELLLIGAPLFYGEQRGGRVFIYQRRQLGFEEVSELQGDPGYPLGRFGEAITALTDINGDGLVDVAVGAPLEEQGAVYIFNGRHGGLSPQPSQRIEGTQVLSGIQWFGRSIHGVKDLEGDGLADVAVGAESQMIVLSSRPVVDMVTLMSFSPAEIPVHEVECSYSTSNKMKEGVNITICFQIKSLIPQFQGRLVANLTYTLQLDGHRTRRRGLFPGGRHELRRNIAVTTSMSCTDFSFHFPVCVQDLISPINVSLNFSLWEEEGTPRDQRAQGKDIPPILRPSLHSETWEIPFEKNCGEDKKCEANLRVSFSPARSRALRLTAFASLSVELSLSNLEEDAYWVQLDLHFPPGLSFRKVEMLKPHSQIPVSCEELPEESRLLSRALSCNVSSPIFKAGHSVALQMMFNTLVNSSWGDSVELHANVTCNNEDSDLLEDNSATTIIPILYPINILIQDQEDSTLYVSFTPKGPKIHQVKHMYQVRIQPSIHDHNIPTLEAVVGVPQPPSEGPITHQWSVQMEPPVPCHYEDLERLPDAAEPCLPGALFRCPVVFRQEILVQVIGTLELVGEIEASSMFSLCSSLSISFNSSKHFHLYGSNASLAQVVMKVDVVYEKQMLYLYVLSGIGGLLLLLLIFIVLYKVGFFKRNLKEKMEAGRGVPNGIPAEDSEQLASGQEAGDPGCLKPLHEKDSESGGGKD
Sequence (P05107 23-769 partner): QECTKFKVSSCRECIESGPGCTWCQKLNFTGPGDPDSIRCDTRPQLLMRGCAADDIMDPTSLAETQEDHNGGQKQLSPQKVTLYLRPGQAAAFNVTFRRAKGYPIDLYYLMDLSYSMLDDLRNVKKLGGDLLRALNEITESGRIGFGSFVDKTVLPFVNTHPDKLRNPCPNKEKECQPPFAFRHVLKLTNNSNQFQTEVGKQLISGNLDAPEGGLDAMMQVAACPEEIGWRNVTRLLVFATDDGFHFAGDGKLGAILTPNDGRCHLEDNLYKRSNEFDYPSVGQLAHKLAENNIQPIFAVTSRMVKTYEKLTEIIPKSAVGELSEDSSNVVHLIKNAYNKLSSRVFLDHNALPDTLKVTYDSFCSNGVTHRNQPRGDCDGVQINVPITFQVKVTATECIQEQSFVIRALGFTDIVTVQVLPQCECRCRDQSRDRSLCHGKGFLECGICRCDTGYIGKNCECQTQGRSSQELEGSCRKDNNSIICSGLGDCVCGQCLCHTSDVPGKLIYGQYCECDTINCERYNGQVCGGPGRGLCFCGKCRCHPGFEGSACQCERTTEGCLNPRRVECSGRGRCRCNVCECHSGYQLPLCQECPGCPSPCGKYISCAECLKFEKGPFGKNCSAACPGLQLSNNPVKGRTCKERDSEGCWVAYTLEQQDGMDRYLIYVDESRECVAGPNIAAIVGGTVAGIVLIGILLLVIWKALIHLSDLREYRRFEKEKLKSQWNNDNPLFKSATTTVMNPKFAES
experiment: JY/αLβ2 cell adhesion to ICAM-1/Ig
recorded conditions: PMA-treated JY cells
measured endpoint: IC50 (µM)

{"columns": ["compound", "study system", "quantitative result"],
 "data": [
  ["CC(=O)Oc1ccccc1C(=O)n1c(-c2ccccc2)cc2ccccc21", "αLβ2 (Homo sapiens, UniProt P05107+P20701)", 28],
  ["Nc1ccc(Sc2ccc(NC(=O)CCc3ccccc3)cc2)c(Cl)c1", "αLβ2 (Homo sapiens, UniProt P05107+P20701)", 30],
  ["O=C(NCc1cccnc1)c1ccccc1C(=O)Nc1sc2ccccc2c1Cl", "αLβ2 (Homo sapiens, UniProt P05107+P20701)", 11],
  ["CC(CN(C)C)NCc1ccccc1Sc1ccc(C(C)(C)C)cc1 (stereo not shown)", "αLβ2 (Homo sapiens, UniProt P05107+P20701)", 20]
]}
